- System: L1210 leukemia ip in BDF1 mice, survival T/C
- protocol.notes: NCI In Vivo Anticancer Drug Screen. Data for tumor model L1210 Leukemia (intraperitoneal) in B6D2F1 (BDF1) mice
- protocol.conditions: endpoint: mean survival time; dose: 200.0 mg/kg/injection; schedule: Q04DX003 (ip); vehicle: saline with Tween-80; higher = longer survival
- Experimental: The antitumor activity of compounds was measured in mice bearing transplantable tumors. Survival or tumor size were measured and the results are expressed as the measurement made in the treated group (T) divided by the measurement made in the vehicle treated control group (C). The tumor model used in this assay is L1210 Leukemia (intraperitoneal) in B6D2F1 (BDF1) mice
Inconclusive results and toxic doses are left out.
This section presents molecules with their documented T/C values.
reported.metric: T/C

>>> df
                              line_notation           reading
0                   O=C(O)CS(=O)(=O)CC(=O)O   93 % of control
1        C=C(C)COc1c(C)cc(C)cc1[N+](=O)[O-]  100 % of control
2  CC1(C)CC(=O)C2=C(C1)OC1=C(C(=O)CC(C)(C)C1)C2c1ccccc1[N+](=O)[O-]   88 % of control
3              CC(C)=CCC(=O)Oc1ccccc1C(=O)O  102 % of control
4                        Cn1ccc2cc(Br)ccc21  101 % of control
5                    O=C(O)c1cnc(Cl)c(Br)c1   94 % of control
6    Cc1ccc(S(=O)(=O)Nc2cc(Cl)c(I)cc2Cl)cc1   90 % of control
